Test: Selectivity index, ratio of IC50 for antiproliferative activity against human L02 cells to IC50 for antiproliferative activity against human HCT-116 cells
Format: toxicity, cell-based
Settings: L02 cells versus HCT-116 cells, read-out: Ratio IC50
MEASURED_METRIC: selectivity ratio
A bare number is all that is needed in reply.

Exam item: Specify reported selectivity ratio for the compound shown: `CC(=O)OC(C)(C)/C=C/C(=O)[C@](C)(O)[C@H]1[C@H](O)C[C@@]2(C)[C@@H]3CC=C4[C@@H](C[C@H](OC(=O)Cn5ncn(-c6ccc(F)cc6)c5=O)C(=O)C4(C)C)[C@]3(C)C(=O)C[C@]12C`
Marked response: 2.94

Exam item: Specify reported selectivity ratio for the compound shown: `COc1ccc(-n2cnn(CC(=O)O[C@H]3C[C@@H]4C(=CC[C@@H]5[C@@]4(C)C(=O)C[C@]4(C)[C@@H]([C@@](C)(O)C(=O)/C=C/C(C)(C)OC(C)=O)[C@H](O)C[C@@]54C)C(C)(C)C3=O)c2=O)cc1`
Marked response: 0.75

Exam item: Specify reported selectivity ratio for the compound shown: `CC(=O)OC(C)(C)/C=C/C(=O)[C@](C)(O)[C@H]1[C@H](O)C[C@@]2(C)[C@@H]3CC=C4[C@@H](C[C@H](OC(=O)Cn5ncn(-c6ccc(Cl)cc6)c5=O)C(=O)C4(C)C)[C@]3(C)C(=O)C[C@]12C`
Marked response: 0.49

Exam item: Specify reported selectivity ratio for the compound shown: `COc1cc(-n2cnn(CC(=O)O[C@H]3C[C@@H]4C(=CC[C@@H]5[C@@]4(C)C(=O)C[C@]4(C)[C@@H]([C@@](C)(O)C(=O)/C=C/C(C)(C)OC(C)=O)[C@H](O)C[C@@]54C)C(C)(C)C3=O)c2=O)cc(OC)c1OC`
Marked response: 0.81

Exam item: Specify reported selectivity ratio for the compound shown: `CC(=O)OC(C)(C)/C=C/C(=O)[C@](C)(O)[C@H]1[C@H](O)C[C@@]2(C)[C@@H]3CC=C4[C@@H](C[C@H](OC(=O)c5ccccn5)C(=O)C4(C)C)[C@]3(C)C(=O)C[C@]12C`
Marked response: 0.43

Exam item: Specify reported selectivity ratio for the compound shown: `CC(=O)OC(C)(C)/C=C/C(=O)[C@](C)(O)[C@H]1[C@H](O)C[C@@]2(C)[C@@H]3CC=C4[C@@H](C[C@H](O)C(=O)C4(C)C)[C@]3(C)C(=O)C[C@]12C`
Marked response: 0.57

Values from ChEMBL document CHEMBL5365466
